Target protein (sequence): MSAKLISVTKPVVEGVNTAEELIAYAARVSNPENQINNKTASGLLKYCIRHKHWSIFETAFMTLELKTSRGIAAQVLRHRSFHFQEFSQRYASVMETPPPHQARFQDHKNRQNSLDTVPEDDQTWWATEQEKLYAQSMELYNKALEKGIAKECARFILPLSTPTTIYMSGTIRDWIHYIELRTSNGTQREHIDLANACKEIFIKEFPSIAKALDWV
pIC50: −log10 of the molar value.
Each entry below carries its recorded pIC50.
Measurement Kind: pIC50

In [3]: df
Out[3]:
                                   compound  measurement_kind  measured_number
0  CCCCCCC(=O)N(CC(=O)O)C[C@@H]1CSC(c2ccccc2)N1C(=O)c1ccccc1 (some centres not stated)             pIC50             6.89
1  CCOC(=O)[C@@H]1CSC(c2ccccc2)N1C(=O)c1cn(CCCNC(=O)C(F)(F)F)nn1 (some centres not stated)             pIC50             7.24

----------
Each entry below carries its recorded pKi.
Biological target: Probable flavin-dependent thymidylate synthase (Paramecium bursaria Chlorella virus 1, UniProt O41156)
Sequence (O41156 whole entry): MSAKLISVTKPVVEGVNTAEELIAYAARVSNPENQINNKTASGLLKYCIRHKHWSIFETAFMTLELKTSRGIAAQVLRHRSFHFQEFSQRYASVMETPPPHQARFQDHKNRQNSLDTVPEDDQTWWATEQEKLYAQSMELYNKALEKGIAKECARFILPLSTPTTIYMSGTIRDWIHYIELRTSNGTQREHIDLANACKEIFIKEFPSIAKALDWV
pKi: −log10 of the molar value.
Measurement Kind: pKi

                                   compound  measurement_kind  measured_number
0  CCOC(=O)[C@@H]1CSC(c2ccccc2)N1C(=O)c1cn(CCCCCCCO)nn1 (stereo not given in full)               pKi             5.46
1  CCOC(=O)[C@@H]1CSC(c2ccccc2)N1C(=O)c1cn(CCc2ccsc2)nn1 (stereo not given in full)               pKi             6.00
2  CCOC(=O)[C@@H]1CSC(c2ccccc2)N1C(=O)c1cn(CCc2ccc(F)cc2)nn1 (stereo not given in full)               pKi             5.70
3  CCOC(=O)[C@@H]1CSC(c2ccccc2)N1C(=O)c1cn(CCCNC(=O)C(F)(F)F)nn1 (stereo not given in full)               pKi             7.24
4  CCCCCCC(=O)N(CC(=O)O)C[C@@H]1CSC(c2ccccc2)N1C(=O)c1ccccc1 (stereo not given in full)               pKi             6.89

Taken from ChEMBL document CHEMBL1145593.
